Hey, just so you know, these numbers are from patent US20260258115A1.

- target_system: RSV prefusion F (preF), DS-Cav1 (Respiratory syncytial virus, UniProt P03420 26-513)
- test_method_notes: BLI, IgG on anti-human IgG sensor, 100 nM antigen
Define the label as T when Kd is strictly less than 3 nM and as F in all remaining cases.

Req: Does this binder meet the criterion Kd < 3 nM? ADI-41606 (antibody, V domains shown, also called Ab 880; Antibody Number 880) VH: EVQLLESGPGLVKPSETLSLTCTVSGGSVSSGGYYYTWIRQPPGKGLEWIGYAFYSGDTNYNPSLKSRVTISVDTSKNQFSLKLTSVTAADTAVYYCASTYTFGASGFDFWGQGTLVTVSS VL: DIVMTQSPSFMSASVGDRVTITCRASQGISNWLLWYQQKPGKAPKLLIYAASSLQSGVPSRFSGSRSGTDFTLTISSLQPEDFAIYYCQQANSFPLTFGQGTRLEIK
Resp: F

Req: Same thing, different binder: ADI-41781 (antibody, V domains shown) VH: QVQLVQSGAEVRKPGASVKVSCKAFGYTFTNFAISWVRQAPGQGLEWMGWIGPYNGDTDYEQKFQGRVTMTADTSSSTVFMELRSLRFDDTAVYYCARGKGSTIPLGYYIGMDVWGQGTTVTVSS VL: ETTLTQSPSSLSASVGDRVTMTCRASQGISNYLAWYQQKPGKPPKLLIYLASSLQSGVPSRFSGSGSGTDFTLTISSLQPEDVATYYCQKYNSAPLTFGGGTKLEIK
Resp: F

Req: What do you have for ADI-41561 (antibody, V domains shown) VH: QVQLVQSGPTLVKPTQTLTLTCSFSGFSLTNTGVGVGWIRQPPGKALEWLALIYWDDDKRYRPSLKSRLTITKDTSKSQVVLTMTNMDPLDTATYYCAHRRSAYDPIYFDYWGQGALVTVSS VL: DIRVTQSPSSVSASVGDRVTITCRASRSINNWLAWYQQKPGKAPKLLIYAASSLQSGVPSRFSGSGYGTDFTLTISSLQPEDFATYYCQQAHSFPSITFGQGTRLEIK ?
Resp: F

Req: // query: ADI-41808 (antibody, V domains shown, also called Ab 916; Antibody Number 916) VH: QVQLVQSGAELKKPGSSVRISCKVSGVTSDNYAITWVRQAPGQGLEWMGRVIPIFPVPQYAQKFQGRVTLSADKSTRTAYLELHSLRSEDTATYYCATHRPSDSWGQGTLVTVSS VL: DIRVTQSPSTLSASVGDRVTITCRASQNINSWLAWYQQKPGKAPKLLIFKASSLESGVPARFSGSGFGTEFTLTITSLQPDDFASYYCQQYDTYPYPFGQGTKVEIK
Resp: F

Req: Please give the result for ADI-41608 (antibody, V domains shown) VH: QVQLVQSGDEVKKPGESLKISCKGSEHTFTNYWIAWVRQMPGKGLECMGVIWPDDSDTKYSPSFQGQVTISADKSINTAYLHLSSLRASDTAMYYCATSKFRTGFDFWGQGTLVTVSS VL: NFMLTQPHSVSESPGKTVIISCTRSSGNIASNYVQWYQQRPGSSPTTVVYEDNQRPSGVPDRFSGSIDSSSNSASLTISGLKTEDEADYYCQSYDSSNPWVFGGGTKLTVL too.
Resp: T
